All figures here come from patent US20240409645A1.

- test-system: T1, human IL-2Rγ (common cytokine receptor γ-chain) (human, UniProt P31785 23-262, limits assumed)
- T1 construct: Recombinant protein coated on the plate or immobilised on a CM5 chip; also called hu IL-2R; CD132
- T1 sequence: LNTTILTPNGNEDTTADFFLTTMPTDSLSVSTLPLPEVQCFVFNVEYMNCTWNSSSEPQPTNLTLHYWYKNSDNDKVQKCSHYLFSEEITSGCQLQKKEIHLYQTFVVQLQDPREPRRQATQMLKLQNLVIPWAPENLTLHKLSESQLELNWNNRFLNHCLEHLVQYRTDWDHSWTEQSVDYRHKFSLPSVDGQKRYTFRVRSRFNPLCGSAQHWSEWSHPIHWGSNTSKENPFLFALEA
- experiment: PE binding ELISA, periplasmic extract on coated protein
quantity: OD (PE binding ELISA) (OD450 nm)
# unit: OD450 nm | format: bare number

binder: FJ1427_P035MP04G09 (VHH, VHH in periplasmic extract; also called clone nr) VHH: QVQLQESGGGLVQAGGSLRLSCAASGPTFSRVAVGWFRQVPGKEREFVAAVNRPATMTKYADSVKGRFTISRDNAKNTVDLQMNSMKPEDTAVYYCAADSVPYGRPYYFQTSAGEYDYWGQGTQVTVSS
OD (PE binding ELISA) [OD450 nm]: 0.559
--
binder: FJ1427_P035MP04B10 (VHH, VHH in periplasmic extract; also called clone nr) VHH: EVQLVESGGGWVQVGESLRLSCAPSGRTFVSGIMGWFRQAPGKEREFVARIILNNNSTRYIDSVKGRFTISRDSAKNTMYLQMDSLRPEDTAVYYCAARDRYGSGNSLSPSAYDYWGQGTQVTVSL
OD (PE binding ELISA) [OD450 nm]: 1.47
--
binder: FJ1427_P035MP04F06 (VHH, VHH in periplasmic extract; also called clone nr) VHH: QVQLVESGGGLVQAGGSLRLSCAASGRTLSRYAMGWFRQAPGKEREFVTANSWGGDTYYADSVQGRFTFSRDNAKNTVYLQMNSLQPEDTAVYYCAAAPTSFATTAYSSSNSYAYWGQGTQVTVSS
OD (PE binding ELISA) [OD450 nm]: 1.41

Query binder follows.
// fetch OD (PE binding ELISA) given entry FJ1427_P035MP04F02 (VHH, VHH in periplasmic extract; also called clone nr) VHH: QLQLVESGGGLVQAGGSLTLSCAASGRTFSRDVVGWFRQAPGKEREFVASISRSGDGTFYTDSVKGRFTISSRDNAKNTVLLQMNSLKVEDTAVYYCAAGDGWSTYDYWGQGTQVTVSS
0.196
